- Tested on: SF-268 CNS
- EXPERIMENT: NCI tumour cell line growth inhibition, 48 h
ENDPOINT: TGI

MOLECULE SMILES | TARGET OR SYSTEM | READING
O=c1c2ccc3cccc4c(=O)c5ccc6cccc1c6c5-c2c34 | SF-268 CNS | > 50 µM
CCCCN1CCN(c2ccc3nc(-c4ccc5nc(-c6ccc(OC)c(OC)c6)[nH]c5c4)[nH]c3c2)CC1 | SF-268 CNS | 6.64 µM
CCN(CC)C(=S)N/N=C(\C)c1cccc(C)n1 | SF-268 CNS | 12.4 µM

* * *

- Tested on: SF-268 CNS
- EXPERIMENT: NCI tumour cell line growth inhibition, 48 h
Where a SMILES comes first, the peptide text is derived from it. The star is where a group is joined. Boc = CC(C)(C)OC(=O)*

COMPOUND | TARGET OR SYSTEM | TGI
O=C(NN1C(=O)CS(=O)(=O)C1c1cccc(F)c1)c1ccncc1 (stereo not drawn) | SF-268 CNS | > 100 µM
Cc1cc(N(CCC#N)CCC#N)ccc1/C=C\C(=O)Nc1ccccc1 | SF-268 CNS | > 100 µM
O=C(CC1=Nc2nnc(CCCCCCCc3nnc4n3C(=O)C(CC(=O)c3ccccc3)=N4)n2C1=O)c1ccccc1 | SF-268 CNS | > 100 µM
O=S(=O)(Nc1ccccc1)c1ccc(-c2c3nc(c(-c4ccc(S(=O)(=O)Nc5ccccc5)cc4)c4ccc([nH]4)c(-c4ccc(S(=O)(=O)Nc5ccccc5)cc4)c4nc(c(-c5ccc(S(=O)(=O)Nc6ccccc6)cc5)c5ccc2[nH]5)C=C4)C=C3)cc1 | SF-268 CNS | > 31.6 µM
COC1CC(OC2C(C)OC(OC3C(C)OC(OC4C(C)OC(O[C@H]5CC[C@@]6(C)C(=CC[C@]7(O)[C@@H]6C[C@@H](OC(=O)/C=C(\C)C(C)C)[C@@]6(C)[C@]7(O)CC[C@@]6(O)C(C)=O)C5)CC4OC)CC3OC)CC2OC)OC(C)C1O (stereo partly drawn) | SF-268 CNS | > 12.5 µM
O=C(N/N=C/c1ccccc1O)c1ccccc1O | SF-268 CNS | > 100 µM
CC(C)(C)OC(=O)NC(Cc1ccc(O)cc1)C(=O)NC(CCCCN)C(=O)O (stereo not drawn) (Boc-Tyr-Lys-OH; configuration not given here) | SF-268 CNS | > 100 µM
CNC(=S)Nc1sc2c(c1C#N)CCCC2 | SF-268 CNS | > 75 µM
O=C1NC2C(=O)N(Cc3ccccc3)C(=O)C2N1 (stereo not drawn) | SF-268 CNS | > 100 µM
CC1CC(C)CC(NC2=NCCO2)C1 (stereo not drawn) | SF-268 CNS | > 100 µM
O=C(O)c1cc(C(=O)O)nc(C(=O)O)c1 | SF-268 CNS | > 100 µM
COc1ccc2[nH]c(S(=O)(=O)N3CC(CCl)c4ccc(N)cc43)cc2c1 (stereo not drawn) | SF-268 CNS | 14.1 µM
COc1cc2c(cc1O)NC(=S)[C@@H]1CCCN1C2=O | SF-268 CNS | > 100 µM
O=C1C=CC(=O)N1C1CCCCCCCCCCC1 | SF-268 CNS | 51.8 µM
Cn1c(O)c(C2=Nc3ccccc3C2=O)c2ccccc21 | SF-268 CNS | > 100 µM
CCOC(=O)C(=O)Nc1ccc(C)c(C)c1 | SF-268 CNS | > 100 µM
O=C(COc1ccc(/C=C/C(=O)c2ccc(Cl)cc2)cc1)Nc1c(Cl)cccc1Cl | SF-268 CNS | > 100 µM
COc1ccc(SCc2cc(OC)c(OC)c(OC)c2)cc1OC | SF-268 CNS | > 100 µM
CN(C)c1ccc(C(=O)NCCCCCCC(=O)NO)cc1 | SF-268 CNS | 6.26 µM
C/C(=N\NC1=NCCN1)c1cn(C2=NCCN2)nc1C | SF-268 CNS | > 100 µM
CN1CCN(C(=S)N(C(=O)c2cccs2)C2CCCCC2)CC1 | SF-268 CNS | > 100 µM
CCOC(=O)[C@H]1O[C@@H]1C(=O)N[C@@H](CC(C)C)C(=O)NCCc1ccc(O)cc1 | SF-268 CNS | > 100 µM
Cc1cc(NS(=O)(=O)c2ccc(NC(=O)c3cccn4c(=O)c5ccccc5nc34)cc2)no1 | SF-268 CNS | > 100 µM
CC(C)(C)OC(=O)C1C(=O)NC(=O)CC1CC(OCc1ccccc1)C(COCc1ccccc1)OCc1ccccc1 (stereo not drawn) | SF-268 CNS | > 100 µM
O=C(O)c1cccc2cccc(-c3c4ccc(=O)cc-4oc4cc(O)ccc34)c12 | SF-268 CNS | > 100 µM
COC(=O)[C@H](NC(=O)OC(C)(C)C)[C@H]1COC(C)(C)O1 | SF-268 CNS | > 100 µM
C=C1CCC2C(C)(CO)C(O)CCC2(C)C1CC(O)/C(=C/CO)C(=O)O (stereo not drawn) | SF-268 CNS | > 100 µM
N#CC(/C(CCCC(=O)Nc1cccc([N+](=O)[O-])c1)=N/NC(=O)c1cc2ccccc2cc1O)c1ccccc1 (stereo not drawn) | SF-268 CNS | > 100 µM
COc1ccc(C2[C@H]3C(=O)N(c4ccc(Cc5ccc(N6C(=O)[C@@H]7ON(c8ccccc8)C(c8ccc(OC)cc8)[C@@H]7C6=O)cc5)cc4)C(=O)[C@H]3ON2c2ccccc2)cc1 (stereo partly drawn) | SF-268 CNS | > 100 µM
C/C1=C\[C@H](C)C[C@H](C)OC(=O)C[C@H](c2ccc(O)cc2)NC(=O)[C@H](Cc2ccc(O)c(I)c2)N(C)C(=O)[C@H](C)NC(=O)[C@@H](C)C1 | SF-268 CNS | 0.153 µM
COc1ccc(C(N)=O)c(OC)c1OCc1ccccc1 | SF-268 CNS | > 100 µM
COc1cc2ncn(-c3cc(O[C@H](C)c4ccccc4Cl)c(C(N)=O)s3)c2cc1OC | SF-268 CNS | 20.1 µM
CCN(CC)Cc1cc(Nc2c3ccccc3nc3c4ccccc4n(C)c23)cc(CN(CC)CC)c1O | SF-268 CNS | 28.8 µM

* * *

- Tested on: PC-3 prostate
- EXPERIMENT: NCI tumour cell line growth inhibition, 48 h
Property: TGI; scope: individual molecules
ENDPOINT: TGI

MOLECULE | READING
CN(C)CCC=C1c2ccccc2C=Cc2ccccc21 | 35 µM
Cn1c(O)c(C2=Nc3ccccc3C2=O)c2ccccc21 | > 100 µM
CCOC(=O)C1(C)CCc2sc(N)c(C#N)c21 (configuration not stated) | > 100 µM
Cc1cc2ncn(C3CCCO3)c2cc1C (configuration not stated) | > 100 µM
CCc1ccc(CNCC(O)c2ccccc2)cc1 (configuration not stated) | > 100 µM
O=C1Nc2cc(Cl)ccc2/C1=C\c1c(-c2ccc(F)cc2)nc2ccccn12 | 5.39 µM
COc1cc(S(=O)(=O)Nc2nc(-c3ccc(N=Cc4cccs4)cc3)cs2)ccc1Cl | > 100 µM
COc1cc(C(=O)NC(CCN)(c2ccccc2)c2ccccc2)cc(OC)c1OC | > 100 µM
CN1CCN(CCCOc2ccc3nc(Nc4cc(Cl)cc(Cl)c4)ccc3c2)CC1 | 3.71 µM
CC(C)(C)OC(=O)C1C(=O)NC(=O)CC1CC(OCc1ccccc1)C(COCc1ccccc1)OCc1ccccc1 (configuration not stated) | 37.7 µM
O=C(c1cc(Cl)ccc1Cl)N1CCN(c2cccc(Cl)c2)CC1 | 6.22 µM
O=C(O)c1cc(C(=O)O)nc(C(=O)O)c1 | > 100 µM

* * *

- System: SF-539 CNS
- EXPERIMENT: NCI tumour cell line growth inhibition, 48 h; in the data active = GI50 below about 0.43 µM; inactive = the rest
Labels: True = active, False = inactive

MOLECULE | CLASS ASSIGNMENT
C[C@@H]1C[N+]2([O-])[C@H]3C4=CCC[C@@H]4CC[C@H]3[C@@]3(C)OC(=O)CC[C@]34CC[C@H]1[C@@H]42 (stereo not given in full) | False
COc1ccc(C(=O)c2cc(OC)c3c(c2)OCO3)cc1O | True
COc1ccc2[nH]c(-c3ccccc3)c(/C=C(\C#N)S(=O)(=O)c3ccccc3)c2c1 | False
CN(C)CCCOc1ccc(OCCCN(C)C)c2c1C(=O)c1ccccc1C2=O | False
CCCCN1CCN(c2ccc3nc(-c4ccc5nc(-c6ccc(OC)c(OC)c6)[nH]c5c4)[nH]c3c2)CC1 | False

* * *

- Test system: A498 renal
- EXPERIMENT: NCI tumour cell line growth inhibition, 48 h

COMPOUND | TGI
O=C1Nc2ccccc2C1=Nc1ccc(S(=O)(=O)Nc2nccs2)cc1 | > 100 µM
CN1CCc2c(c3ccccc3c3ccccc23)C1 | 7.41 µM
CCOP(=O)(O)C(Nc1ccc(N=Nc2ccccc2)cc1)c1ccc(C(Nc2ccc(N=Nc3ccccc3)cc2)P(=O)(O)OCC)cc1 (stereo not given) | 64.8 µM
COc1cc(S(=O)(=O)Nc2nc(-c3ccc(N=Cc4cccs4)cc3)cs2)ccc1Cl | > 100 µM
CC1(C)OC2C(CO)OC(n3cnc(N)nc3=O)C2O1 (stereo not given) | > 100 µM
OC1(c2ccccc2)c2ccccc2NC2=NCCN21 (stereo not given) | > 100 µM
CCCC1C(CC)C(NC)C(C#N)(C#N)C1(C#N)C#N (stereo not given) | 31.9 µM
CCCCc1ccc(Nc2cc(=O)n(C)c(=O)[nH]2)cc1 | > 100 µM
Cc1cc(N(CCC#N)CCC#N)ccc1/C=C\C(=O)Nc1ccccc1 | > 100 µM
COc1ccc(/C=N/c2nc3cc4sc(/N=C/c5ccc(OC)cc5)nc4cc3s2)cc1 | > 100 µM
O=C(Nc1ccc(CN2CCOCC2)cc1)c1ccc(-c2cc(Cl)ccc2Cl)o1 | 22.1 µM
Cn1ncc2[nH]cnc2c1=S | > 100 µM
COc1ccc(SCc2cc(OC)c(OC)c(OC)c2)cc1OC | > 86.4 µM
Cc1ncc([N+](=O)[O-])n1CCNC(=O)CCCn1ccnc1[N+](=O)[O-] | > 100 µM
O=C1OCC=C1COC1OC(CO)C(O)C(O)C1O (stereo not given) | > 100 µM
CC(=O)O[C@H]1CCC2(C)C(=CCC3C2CCC2(C)/C(=N/OC(=O)c4ccc(N(CCCl)CCCl)cc4)CCC32)C1 (stereo not given in full) | > 62.8 µM
C[C@@H]1C[N+]2([O-])[C@H]3C4=CCC[C@@H]4CC[C@H]3[C@@]3(C)OC(=O)CC[C@]34CC[C@H]1[C@@H]42 (stereo not given in full) | > 60 µM
CC(=O)[CH-]C(C)=O.CC(=O)[CH-]C(C)=O.CC(=O)[CH-]C(C)=O.[In+3] | > 100 µM
COc1ccc2[nH]c(-c3ccccc3)c(/C=C(\C#N)S(=O)(=O)c3ccccc3)c2c1 | 44.6 µM
O=C(c1cc(Cl)ccc1Cl)N1CCN(c2cccc(Cl)c2)CC1 | 34.8 µM
O=C(CC1C(=O)Nc2ccccc2S1=O)Nc1ccccc1 (stereo not given) | > 100 µM
C/C(=N\O)c1ccc(Nc2nc3ccccc3c3occc23)cc1 | 37.8 µM
O=C(O)c1cc(C(=O)O)nc(C(=O)O)c1 | > 100 µM
CCCS(=O)(=O)Nc1ccc(F)c(C(=O)c2c[nH]c3ncc(Cl)cc23)c1F | 24 µM
CN1CCN(CCCOc2ccc3nc(Nc4cc(Cl)cc(Cl)c4)ccc3c2)CC1 | 3.22 µM

Taken from PubChem BioAssay (NCI).
